Form field: IC50 (one value per entry).
experimental system: 20S proteasome β5 chymotrypsin-like activity (Suc-LLVY-AMC) (Homo sapiens, UniProt P20618+P28074)
Construct: Proteasomes were isolated from red blood cells
method description: Protease assay, chymotrypsin-like activity of isolated 20S proteasomes (LLVY substrate)
assay setup: isolated 20S proteasome; LLVY-MCA 50 μM; 15 min pre-incubation; read-out: IC50 β5 Chymotrypsin-like (Y)
Where a SMILES comes first, the peptide text is derived from it. [ ]: non-standard residue; d: D form. The star is where a group is joined. Leu(ol) = CC(C)C[C@H](N)CO; Boc = CC(C)(C)OC(=O)*; OBn = c1ccc(CO*)cc1; OtBu = CC(C)(C)O*

CC(C)C[C@@H](CO)NC(=O)[C@H](CC(=O)OCc1ccccc1)NC(=O)[C@H](CC(C)C)NC(=O)OC(C)(C)C [Compound 12] (Boc-Leu-Asp(OBn)-[Leu(ol)]) :: > 10 µM

Consider the compound CC(=O)N[C@@H](CC(C)C)C(=O)N[C@@H](CC(=O)OC(C)(C)C)C(=O)N[C@H](CO)CC(C)C [Compound 9] (Ac-Leu-Asp(OtBu)-[Leu(ol)]) . State its measured IC50. > 10 µM

Fill in reported IC50 for this entry: CC(C)C[C@H](NC(=O)OCc1ccccc1)C(=O)N[C@@H](CC(C)C)C(=O)N[C@@H](CC(C)C)C(=O)C(=O)Nc1ccccc1 [Compound 28] 0.072 µM

----------
In this section, each of the compounds is paired with its reported pIC50.
experimental system: 20S proteasome β5 chymotrypsin-like activity (GLL-MCA) (Homo sapiens, UniProt P20618+P28074)
Construct: Proteasomes were isolated from red blood cells
method description: Protease assay, chymotrypsin-like activity of isolated 20S proteasomes (GLL substrate)
assay setup: isolated 20S proteasome; GLL-MCA 50 μM; 15 min pre-incubation; read-out: IC50 β5 Chym.-like (L)
Where a SMILES comes first, the peptide text is derived from it. The star is where a group is joined. Cbz = O=C(OCc1ccccc1)*; Boc = CC(C)(C)OC(=O)*; OtBu = CC(C)(C)O*
Recall that pIC50 is obtained by taking minus log10 of the concentration measured in molar.

CC(C)C[C@@H](C=O)NC(=O)[C@H](CC(=O)OC(C)(C)C)NC(=O)[C@H](CC(C)C)NC(=O)OC(C)(C)C [Compound 13] (Boc-Leu-Asp(OtBu)-Leu-aldehyde) :: 6.99

Now look at this entry.
Please list pIC50 recorded for the compound CC(C)CC(C=O)NC(=O)C(CC(=O)OC(C)(C)C)NC(=O)C(CC(C)C)NC(=O)OCc1ccccc1 (stereo not drawn) [Compound 15, Z-Leu-Asp(O^tBu)Leu-CHO] (Cbz-Leu-Asp(OtBu)-Leu-aldehyde; configuration not given here) 7.51

----------
experimental system: 20S proteasome β2 trypsin-like activity (VGR-MCA) (Homo sapiens, UniProt P49720+Q99436)
Construct: Proteasomes were isolated from red blood cells
method description: Protease assay, trypsin-like activity of isolated 20S proteasomes
assay setup: isolated 20S proteasome; VGR-MCA 50 μM; 15 min pre-incubation; read-out: IC50 β2 Trypsin-like (R)
pIC50: −log10 of the molar value. Where a SMILES comes first, the peptide text is derived from it. The star is where a group is joined. Cbz = O=C(OCc1ccccc1)*
experimental readout: pIC50

CC(C)C[C@@H](C=O)NC(=O)[C@H](CC(=O)O)NC(=O)[C@@H](N)CC(C)C [Compound 14] (H-Leu-Asp-Leu-aldehyde) :: < 5.00

Report its pIC50 with 20S proteasome β2 trypsin-like activity (VGR-MCA) (Homo sapiens, UniProt P49720+Q99436) as the test system: CC(C)C[C@@H](C=O)NC(=O)[C@H](CC(=O)O)NC(=O)[C@H](CC(C)C)NC(=O)OCc1ccccc1 [Compound 16] (Cbz-Leu-Asp-Leu-aldehyde) < 5.00

Look up and report pIC50, with 20S proteasome β2 trypsin-like activity (VGR-MCA) (Homo sapiens, UniProt P49720+Q99436) as system, for CC(C)C[C@@H](COC(Cl)=CCl)NC(=O)[C@H](CC(C)C)NC(=O)[C@H](CC(C)C)NC(=O)OCc1ccccc1 < 5.00

Where do the numbers come from? From patent US8835392B2.
